system: P-gp and BCRP; test: in vitro; settings: human, Caco-2, pH 7.4, BL-to-AP Recovery of TUDCA
readout-type: recovery at 81 μM

structure-smiles	readout-type	endpoint-value
C[C@H](CCC(=O)NCCS(=O)(=O)O)[C@H]1CC[C@H]2[C@@H]3[C@@H](O)C[C@@H]4C[C@H](O)CC[C@]4(C)[C@H]3CC[C@]12C	recovery at 81 μM	101%

---

system: P-gp and BCRP; assay: in vitro; details: human, Caco-2, pH 7.4, BL-to-AP Recovery of TUDCA
readout-type: recovery at 1.62 μM (%)

structure-smiles	readout-type	endpoint-value
C[C@H](CCC(=O)NCCS(=O)(=O)O)[C@H]1CC[C@H]2[C@@H]3[C@@H](O)C[C@@H]4C[C@H](O)CC[C@]4(C)[C@H]3CC[C@]12C	recovery at 1.62 μM	79.5

---

target: UniProtKB P20813; assay: Time-dependent inhibition (TDI) of CYP in HLM, 30 min pre-incubation ±NADPH; conditions: microsomes, pH 7.4, % of Control Enzyme Activity, +NADPH 30 min, 3.33 μM
Sequence (P20813 whole entry): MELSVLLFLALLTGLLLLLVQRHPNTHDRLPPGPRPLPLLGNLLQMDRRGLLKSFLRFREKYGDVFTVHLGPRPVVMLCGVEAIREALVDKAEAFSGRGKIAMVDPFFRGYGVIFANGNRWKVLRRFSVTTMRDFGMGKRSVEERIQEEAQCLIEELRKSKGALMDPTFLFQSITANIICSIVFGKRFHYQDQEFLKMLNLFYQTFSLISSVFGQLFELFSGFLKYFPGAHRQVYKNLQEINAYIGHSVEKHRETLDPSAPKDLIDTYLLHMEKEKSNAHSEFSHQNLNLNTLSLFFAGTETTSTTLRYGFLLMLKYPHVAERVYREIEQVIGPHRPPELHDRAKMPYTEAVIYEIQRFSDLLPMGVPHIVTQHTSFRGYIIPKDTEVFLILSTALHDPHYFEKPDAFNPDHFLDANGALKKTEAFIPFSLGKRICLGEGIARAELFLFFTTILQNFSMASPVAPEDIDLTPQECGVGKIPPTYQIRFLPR

molecule	activity at 30 min, 3.33 µM
S=P(N1CC1)(N1CC1)N1CC1 [Thio-TEPA]	35.5%

---

target: CYP2C9 (Homo sapiens); assay: in vitro; settings: microsomes, pH 7.4, % of Control Enzyme Activity
Sequence (P11712 whole entry): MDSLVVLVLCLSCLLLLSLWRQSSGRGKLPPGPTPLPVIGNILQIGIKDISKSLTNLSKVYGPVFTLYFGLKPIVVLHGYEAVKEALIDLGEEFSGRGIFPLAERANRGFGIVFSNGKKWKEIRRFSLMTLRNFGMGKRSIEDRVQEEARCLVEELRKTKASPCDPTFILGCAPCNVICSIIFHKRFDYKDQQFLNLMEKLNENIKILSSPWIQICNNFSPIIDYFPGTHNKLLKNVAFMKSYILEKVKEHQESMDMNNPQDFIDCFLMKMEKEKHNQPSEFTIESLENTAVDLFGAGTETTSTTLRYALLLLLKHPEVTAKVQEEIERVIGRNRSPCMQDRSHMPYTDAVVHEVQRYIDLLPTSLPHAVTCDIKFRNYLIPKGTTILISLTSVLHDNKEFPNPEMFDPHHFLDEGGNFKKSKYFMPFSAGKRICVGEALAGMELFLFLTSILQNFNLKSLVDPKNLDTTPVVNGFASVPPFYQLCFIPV
readout-type: activity at 30 min, 10 µM (%)

structure-smiles	readout-type	endpoint-value
O=C(O)COc1ccc(C(=O)c2cccs2)c(Cl)c1Cl	activity at 30 min, 10 µM	22.2

---

biological target: UniProtKB P08183; assay: P-gp IC50 assessment, bidirectional digoxin transport in MDR1-MDCK cells; conditions: human, MDR1-MDCK cell monolayers on Transwell plates, pH 7.4, probe digoxin (10 μM)
Sequence (P08183 whole entry): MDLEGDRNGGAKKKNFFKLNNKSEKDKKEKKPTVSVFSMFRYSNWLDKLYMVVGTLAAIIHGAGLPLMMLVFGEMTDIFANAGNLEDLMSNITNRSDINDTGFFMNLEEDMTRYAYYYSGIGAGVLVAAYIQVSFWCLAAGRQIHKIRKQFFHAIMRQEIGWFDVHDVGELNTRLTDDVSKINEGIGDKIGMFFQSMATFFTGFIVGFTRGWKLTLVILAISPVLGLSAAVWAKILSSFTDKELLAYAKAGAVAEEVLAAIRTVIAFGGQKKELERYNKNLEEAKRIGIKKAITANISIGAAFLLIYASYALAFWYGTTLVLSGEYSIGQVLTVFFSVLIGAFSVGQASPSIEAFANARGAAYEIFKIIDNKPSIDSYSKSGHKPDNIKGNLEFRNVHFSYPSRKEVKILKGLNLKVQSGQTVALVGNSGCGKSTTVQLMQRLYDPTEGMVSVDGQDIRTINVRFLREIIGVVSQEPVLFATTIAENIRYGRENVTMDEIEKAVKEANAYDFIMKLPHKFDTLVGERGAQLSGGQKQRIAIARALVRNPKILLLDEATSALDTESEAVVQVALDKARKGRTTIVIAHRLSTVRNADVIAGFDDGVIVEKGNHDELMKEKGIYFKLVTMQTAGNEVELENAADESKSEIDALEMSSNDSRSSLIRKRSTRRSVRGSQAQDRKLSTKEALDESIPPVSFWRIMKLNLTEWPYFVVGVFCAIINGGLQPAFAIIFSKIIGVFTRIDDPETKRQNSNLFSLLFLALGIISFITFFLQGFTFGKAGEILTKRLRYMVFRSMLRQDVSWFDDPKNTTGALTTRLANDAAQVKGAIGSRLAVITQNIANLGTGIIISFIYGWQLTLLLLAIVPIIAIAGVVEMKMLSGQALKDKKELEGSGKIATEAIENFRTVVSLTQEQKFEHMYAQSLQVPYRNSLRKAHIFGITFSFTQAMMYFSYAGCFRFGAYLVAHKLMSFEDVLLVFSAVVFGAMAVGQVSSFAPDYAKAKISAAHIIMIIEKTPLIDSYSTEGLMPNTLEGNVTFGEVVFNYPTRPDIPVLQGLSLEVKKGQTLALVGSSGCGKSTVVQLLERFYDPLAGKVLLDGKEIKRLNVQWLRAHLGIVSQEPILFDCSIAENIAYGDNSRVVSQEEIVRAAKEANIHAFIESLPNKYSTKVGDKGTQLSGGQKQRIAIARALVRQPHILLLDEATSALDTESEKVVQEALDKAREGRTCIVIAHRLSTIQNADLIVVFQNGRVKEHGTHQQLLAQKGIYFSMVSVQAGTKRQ

molecule	inhibition at 1 μM (%)
C/C=C/C[C@@H](C)C(=O)[C@H]1C(=O)N[C@@H](C(C)C)C(=O)N(C)CC(=O)N(C)[C@@H](CC(C)C)C(=O)N[C@@H](C(C)C)C(=O)N(C)[C@@H](CC(C)C)C(=O)N[C@@H](C)C(=O)N[C@H](C)C(=O)N(C)[C@@H](CC(C)C)C(=O)N(C)[C@@H](CC(C)C)C(=O)N(C)[C@@H](C(C)C)C(=O)N1C [valspodar, reference compound]	99.9

---

tested on: P-gp and BCRP; assay: in vitro; conditions: human, Caco-2, pH 7.4, AP-to-BL Papp of TUDCA

structure-smiles	Papp A→B at […] [×10⁻⁶ cm/s]
C[C@H](CCC(=O)NCCS(=O)(=O)O)[C@H]1CC[C@H]2[C@@H]3[C@@H](O)C[C@@H]4C[C@H](O)CC[C@]4(C)[C@H]3CC[C@]12C	7.47

---

test system: P-gp and BCRP; test: in vitro; conditions: human, Caco-2, pH 7.4, AP-to-BL Recovery of TUDCA

structure-smiles	uom	recovery at 81 μM
C[C@H](CCC(=O)NCCS(=O)(=O)O)[C@H]1CC[C@H]2[C@@H]3[C@@H](O)C[C@@H]4C[C@H](O)CC[C@]4(C)[C@H]3CC[C@]12C	%	101

---

test system: P-gp and BCRP; test: P-gp and BCRP substrate assessment, bidirectional permeability in C2BBe1 cells; details: human, Caco-2, pH 7.4, probe digoxin (P-gp), cladribine (BCRP), AP-to-BL Papp, C2BBe1 cells, 10 μM probe, batch used with Sol_2; Average

structure-smiles	subject-of-test	Papp A→B at 10 µM (×10⁻⁶ cm/s)
C[C@H]1O[C@@H](O[C@H]2[C@@H](O)C[C@H](O[C@H]3[C@@H](O)C[C@H](O[C@H]4CC[C@@]5(C)[C@H](CC[C@@H]6[C@@H]5C[C@@H](O)[C@]5(C)[C@@H](C7=CC(=O)OC7)CC[C@]65O)C4)O[C@@H]3C)O[C@@H]2C)C[C@H](O)[C@@H]1O	P-gp and BCRP	0.334

These measurements were taken from patent US20230277630A1.
